- Tested on: Caco-2 cell monolayers
- Assay Procedure: Caco-2 permeability assay
- Assay type: in vitro ADME
- Run Conditions: b-a direction, mass balance
Metric: MR (%)

# count of solved cases: 3
- COc1cccc(N2CCN(Cc3nc(N)nc(Nc4ccc(C)c(C)c4)n3)CC2)c1: 12
- Cc1ccc(Nc2nc(N)nc(CN3CCN(c4ccc(Cl)cc4)CC3)n2)cc1C: 16
- Cc1cccc(N2CCN(Cc3nc(N)nc(Nc4ccc(C)c(C)c4)n3)CC2)c1: 67

[I] COc1cccc(N2CCN(Cc3nc(N)nc(Nc4ccc(C)c(Cl)c4)n3)CC2)c1
[II] Cc1ccc(N2CCN(Cc3nc(N)nc(Nc4ccc(C)c(C)c4)n3)CC2)cc1
Asked: # compare MR for I vs II ; return the one with the smaller value Give the chosen item's label as your response.
Given back: II
(II: 14%, I: 41%)

----------
- Assay Procedure: Caco-2 permeability assay
- Format: in vitro ADME
- Run Conditions: human, Caco-2; apical to basolateral, pH 7.4, 37° C., test concentration 1 to 10 μM
Metric: Papp A→B at 60 min (×10⁻⁶ cm/s)

• COc1cccc(N2CCN(Cc3nc(N)nc(Nc4ccc(C)c(C)c4)n3)CC2)c1 = 35
• COc1cccc(N2CCN(Cc3nc(N)nc(Nc4ccc(C)c(Cl)c4)n3)CC2)c1 = 0.8
• Cc1cccc(N2CCN(Cc3nc(N)nc(Nc4ccc(C)c(C)c4)n3)CC2)c1 = 2.4

[P] Cc1ccc(N2CCN(Cc3nc(N)nc(Nc4ccc(C)c(C)c4)n3)CC2)cc1
[Q] Cc1ccc(Nc2nc(N)nc(CN3CCN(c4ccc(Cl)cc4)CC3)n2)cc1C
Asked: Could you point out whether the larger Papp A→B at 60 min belongs to P or to Q ? To answer, give the label that identifies your chosen option.
Given back: P
(P: 12 ×10⁻⁶ cm/s, Q: 1.9 ×10⁻⁶ cm/s)

----------
- Measurement Target: Nox4 (Homo sapiens (Human), UniProt Q9NPH5)
- Sequence (Q9NPH5 whole entry, species assumed, one chain of several): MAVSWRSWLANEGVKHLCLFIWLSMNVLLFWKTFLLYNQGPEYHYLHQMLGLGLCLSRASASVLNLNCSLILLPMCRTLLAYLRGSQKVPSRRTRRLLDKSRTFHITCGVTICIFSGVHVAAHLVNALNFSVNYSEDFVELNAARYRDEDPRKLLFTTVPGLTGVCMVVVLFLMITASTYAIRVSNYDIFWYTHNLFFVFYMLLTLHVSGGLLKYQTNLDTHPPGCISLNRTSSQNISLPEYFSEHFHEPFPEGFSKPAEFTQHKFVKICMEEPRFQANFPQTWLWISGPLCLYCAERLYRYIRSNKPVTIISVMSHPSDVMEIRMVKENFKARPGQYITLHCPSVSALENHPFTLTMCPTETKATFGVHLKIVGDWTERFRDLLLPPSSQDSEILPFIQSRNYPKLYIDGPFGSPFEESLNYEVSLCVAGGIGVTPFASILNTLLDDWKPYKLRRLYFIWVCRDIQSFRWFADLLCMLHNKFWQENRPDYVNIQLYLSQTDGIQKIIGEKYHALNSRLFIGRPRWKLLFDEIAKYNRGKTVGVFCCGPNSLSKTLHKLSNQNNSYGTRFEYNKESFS
- Assay Procedure: Nox4 whole cell assay (Amplex red, hydrogen peroxide)
- Run Conditions: HEK (CJ Nox4) cells stably expressing Nox4
Metric: IC50 (µM)

Examples with their reported IC50 follow.
- COc1cccc(N2CCN(Cc3nc(N)nc(Nc4ccc(C)c(C)c4)n3)CC2)c1: 1.68
- Cc1ccc(Nc2nc(N)nc(CN3CCN(c4ccc(Cl)cc4)CC3)n2)cc1C: 1.68

[A] Cc1cccc(N2CCN(Cc3nc(N)nc(Nc4ccc(C)c(C)c4)n3)CC2)c1
[B] COc1cccc(N2CCN(Cc3nc(N)nc(Nc4ccc(C)c(Cl)c4)n3)CC2)c1
Asked: Return label of the item with the larger IC50. Candidates: A , B . Write the label of whichever entry you select.
Given back: A

----------
- System: Caco-2 cell monolayers
- Assay Procedure: Caco-2 permeability assay
- Type: in vitro ADME
- Run Conditions: a-b direction, mass balance
Metric: MR (%)

// below: answered compounds
* Cc1ccc(Nc2nc(N)nc(CN3CCN(c4ccc(Cl)cc4)CC3)n2)cc1C [D] | 40
* Cc1cccc(N2CCN(Cc3nc(N)nc(Nc4ccc(C)c(C)c4)n3)CC2)c1 [C] | 37
* COc1cccc(N2CCN(Cc3nc(N)nc(Nc4ccc(C)c(C)c4)n3)CC2)c1 [A] | 17

[a] COc1cccc(N2CCN(Cc3nc(N)nc(Nc4ccc(C)c(Cl)c4)n3)CC2)c1 [B]
[b] Cc1ccc(N2CCN(Cc3nc(N)nc(Nc4ccc(C)c(C)c4)n3)CC2)cc1 [inventive]
Asked: I would appreciate it if you could say which entry, a or b , has the lower MR value. Give the chosen item's label as your response.
Given back: b

----------
- Assay Procedure: Caco-2 permeability assay
- Assay type: in vitro ADME
- Run Conditions: human, Caco-2; Papp (b-a) divided by Papp (a-b)
Metric: efflux ratio at 60 min

Here are 2 compounds together with their reported answers.
* COc1cccc(N2CCN(Cc3nc(N)nc(Nc4ccc(C)c(C)c4)n3)CC2)c1 [A] | 1
* COc1cccc(N2CCN(Cc3nc(N)nc(Nc4ccc(C)c(Cl)c4)n3)CC2)c1 [B] | 54

[1] Cc1cccc(N2CCN(Cc3nc(N)nc(Nc4ccc(C)c(C)c4)n3)CC2)c1 [C]
[2] Cc1ccc(Nc2nc(N)nc(CN3CCN(c4ccc(Cl)cc4)CC3)n2)cc1C [D]
Asked: Higher efflux ratio at 60 min between 1 and 2 ? Lab note: record the label of whichever item you select.
Given back: 1

----------
- Measurement Target: Nox2 (Homo sapiens (Human), UniProt P04839)
- Sequence (P04839 2-570, one chain of several): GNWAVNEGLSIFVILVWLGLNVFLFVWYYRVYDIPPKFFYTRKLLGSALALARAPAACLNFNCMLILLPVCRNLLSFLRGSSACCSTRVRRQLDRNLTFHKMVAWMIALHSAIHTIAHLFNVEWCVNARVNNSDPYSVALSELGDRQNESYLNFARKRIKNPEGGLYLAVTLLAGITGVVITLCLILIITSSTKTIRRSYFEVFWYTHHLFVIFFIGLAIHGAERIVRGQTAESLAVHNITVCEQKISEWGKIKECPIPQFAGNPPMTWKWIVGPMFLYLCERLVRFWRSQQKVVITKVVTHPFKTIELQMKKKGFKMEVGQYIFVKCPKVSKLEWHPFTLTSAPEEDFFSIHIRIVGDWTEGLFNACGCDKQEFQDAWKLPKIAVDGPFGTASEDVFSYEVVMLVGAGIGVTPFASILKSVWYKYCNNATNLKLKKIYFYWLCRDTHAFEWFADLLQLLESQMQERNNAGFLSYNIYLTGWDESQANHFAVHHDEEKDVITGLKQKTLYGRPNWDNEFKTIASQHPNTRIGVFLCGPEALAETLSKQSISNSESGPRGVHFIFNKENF
- Assay Procedure: Nox2 whole cell assay in isolated neutrophils (isoluminol, PMA-stimulated)
- Run Conditions: PMA 30 ng/ml
Metric: IC50 (µM)

Solved entries (count: 2):
- COc1cccc(N2CCN(Cc3nc(N)nc(Nc4ccc(C)c(C)c4)n3)CC2)c1: 1.68
- Cc1ccc(Nc2nc(N)nc(CN3CCN(c4ccc(Cl)cc4)CC3)n2)cc1C: 15

[P] Cc1cccc(N2CCN(Cc3nc(N)nc(Nc4ccc(C)c(C)c4)n3)CC2)c1
[Q] COc1cccc(N2CCN(Cc3nc(N)nc(Nc4ccc(C)c(Cl)c4)n3)CC2)c1
Asked: Which has the higher IC50, P or Q ? Give the chosen item's label as your response.
Given back: P

----------
- Measurement Target: human Nox1 (Homo sapiens (Human), UniProt Q9Y5S8)
- Sequence (Q9Y5S8 whole entry): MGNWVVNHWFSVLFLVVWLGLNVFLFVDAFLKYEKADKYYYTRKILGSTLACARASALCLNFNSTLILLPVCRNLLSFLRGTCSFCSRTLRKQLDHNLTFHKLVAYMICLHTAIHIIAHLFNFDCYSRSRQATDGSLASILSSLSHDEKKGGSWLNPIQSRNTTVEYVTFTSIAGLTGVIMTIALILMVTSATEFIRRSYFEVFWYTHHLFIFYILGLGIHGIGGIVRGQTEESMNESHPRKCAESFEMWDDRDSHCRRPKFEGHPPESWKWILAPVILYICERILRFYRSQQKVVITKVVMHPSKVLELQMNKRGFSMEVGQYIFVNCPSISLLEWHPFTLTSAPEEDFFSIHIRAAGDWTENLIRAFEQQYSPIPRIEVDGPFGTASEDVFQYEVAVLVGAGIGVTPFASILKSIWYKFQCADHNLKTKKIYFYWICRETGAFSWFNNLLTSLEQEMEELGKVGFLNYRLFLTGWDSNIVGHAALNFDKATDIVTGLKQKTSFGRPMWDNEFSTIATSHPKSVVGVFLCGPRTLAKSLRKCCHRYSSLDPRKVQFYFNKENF
- Sequence (P13498 2-195 partner): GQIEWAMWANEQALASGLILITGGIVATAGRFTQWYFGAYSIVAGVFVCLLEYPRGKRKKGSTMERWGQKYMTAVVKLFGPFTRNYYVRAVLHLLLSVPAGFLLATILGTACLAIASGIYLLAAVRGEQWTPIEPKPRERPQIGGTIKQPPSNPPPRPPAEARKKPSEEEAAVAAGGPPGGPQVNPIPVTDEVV
- Assay Procedure: Nox1 whole cell luminescence assay (luminol, PMA-stimulated)
- Assay type: cell-based
- Run Conditions: CHO cells stably expressing human Nox1
Metric: IC50 (µM)

Field: example entries. Status: answers known.
* Cc1ccc(N2CCN(Cc3nc(N)nc(Nc4ccc(C)c(C)c4)n3)CC2)cc1 | 66
* COc1cccc(N2CCN(Cc3nc(N)nc(Nc4ccc(C)c(C)c4)n3)CC2)c1 | 66

[I] COc1cccc(N2CCN(Cc3nc(N)nc(Nc4ccc(C)c(Cl)c4)n3)CC2)c1
[II] Cc1cccc(N2CCN(Cc3nc(N)nc(Nc4ccc(C)c(C)c4)n3)CC2)c1
Asked: Response body: label of entry with the larger IC50; valid values I , II . # answer = label of selected item
Given back: II

----------
- Assay Procedure: Caco-2 permeability assay
- Type: in vitro ADME
- Run Conditions: human, Caco-2; basolateral to apical, pH 7.4, 37° C., test concentration 1 to 10 μM
Metric: Papp B→A at 60 min (nm/s)

- COc1cccc(N2CCN(Cc3nc(N)nc(Nc4ccc(C)c(C)c4)n3)CC2)c1: 340
- Cc1ccc(N2CCN(Cc3nc(N)nc(Nc4ccc(C)c(C)c4)n3)CC2)cc1: 430
- Cc1ccc(Nc2nc(N)nc(CN3CCN(c4ccc(Cl)cc4)CC3)n2)cc1C: 330

[a] Cc1cccc(N2CCN(Cc3nc(N)nc(Nc4ccc(C)c(C)c4)n3)CC2)c1
[b] COc1cccc(N2CCN(Cc3nc(N)nc(Nc4ccc(C)c(Cl)c4)n3)CC2)c1
Asked: Given the listed items, does a or b have the lesser reported Papp B→A at 60 min? Reply briefly: the label of your chosen item.
Given back: b
(b: 430 nm/s, a: 890 nm/s)
